Assay: qHTS Assay for Lipid Storage Modulators in Drosophila S3 Cells;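 also: cells counted by Cell Tracker Red CMTPX staining in the red channel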
Conditions: BODIPY lipid droplet fluorescence, 18-24 h, cells fed with added oleic acid; measured here: cell count max response
The whole screen tested about 320,000 compounds, of which about 2,100 (0.66%) were called active. Roughly 53% stayed inconclusive and do not appear here. The full list was thinned out, with actives kept by preference.
Measurement Kind: cell number change
Report as: number unit

The examples below pair each entry with its known result.
CN(C)Cc1c(C(=O)N/N=C/c2ccccc2OCc2c(F)cccc2Cl)nnn1-c1nonc1N ... 0.435%
CSc1cc(C)n(-c2ccccc2C)c(=S)c1C(C)=O ... 16.2%
COc1cccc(CNC(=O)CCCCCn2c(=S)[nH]c3ccc(N4CCOCC4)cc3c2=O)c1 ... 4.01%
Cc1nc2ccccc2c(=O)n1/N=C/c1ccccc1O ... 14.5%
Cc1c2cnn(CC(=O)NCc3ccccn3)c(=O)c2c(C)n1Cc1ccccc1 ... -4.61%

Next item in the queue.
[in] Please look up its cell number change: "COc1ccc(C)cc1N(CC(N)=O)S(=O)(=O)c1ccc(C)cc1"
[out] -13.9%
